Measured Lym values are reported for all entries that follow.
Organism: Rattus norvegicus
procedure-details: Open TG-GATES - Regimen: Daily Repeat
Format: toxicity, organism-based, Sprague-Dawley
Parameters: regimen Daily Repeat, gender Male, age 6 weeks
protocol-conditions: in vivo, po, 0 mg/kg, 72 h, tissue Blood, route gavage, dose level Control, time 3 day
# number then unit; no other words

Known results for compounds:
| compound | outcome-measure | result |
| --- | --- | --- |
| CN1C(=O)CN=C(c2ccccc2)c2cc(Cl)ccc21 | Lym | 78.6% |
| CCOc1ccc(NC(=O)CC(C)O)cc1 (stereo not drawn) | Lym | 73.4% |
| CCOC(=O)CCC(=O)O[C@H]1[C@H](O[C@@H]2[C@@H](C)[C@H](O[C@H]3C[C@@](C)(OC)[C@@H](O)[C@H](C)O3)[C@@H](C)C(=O)O[C@H](CC)[C@@](C)(O)[C@H](O)[C@@H](C)C(=O)[C@H](C)C[C@@]2(C)O)O[C@H](C)C[C@@H]1N(C)C [ERYTHROMYCIN ETHYLSUCCINATE] | Lym | 78.6% |
| COC1=CC(=O)C[C@@H](C)[C@]12Oc1c(Cl)c(OC)cc(OC)c1C2=O | Lym | 81.8% |
| NC(N)=Nc1nc(CSCCC(N)=NS(N)(=O)=O)cs1 | Lym | 73.8% |
| NNC(=O)c1ccncc1 | Lym | 74% |
| CCCNC(=O)NS(=O)(=O)c1ccc(Cl)cc1 [CHLORPROPAMIDE] | Lym | 78% |

Let us move to another entry and its Lym.
Input CN(C)CCCN1c2ccccc2CCc2ccccc21 . Output Lym: 77.8%

---

Species: Rattus norvegicus
procedure-details: Open TG-GATES - Regimen: Single
Assay type: toxicity, organism-based, Sprague-Dawley
Design: regimen Single, gender Male, age 6 weeks
protocol-conditions: in vivo, po, 300 mg/kg, 3 h, tissue Blood, route gavage, dose level Middle
outcome-measure: MCH (pg)
Field: numeric (pg). Do not append units.

Example entries and their recorded answers appear below.
| compound | MCH [pg] |
| --- | --- |
| COc1ccc2[nH]c([S+]([O-])Cc3ncc(C)c(OC)c3C)nc2c1 (centres undefined) | 21.2 |
| NC(N)=Nc1nc(CSCCC(N)=NS(N)(=O)=O)cs1 | 22.4 |
| COC1=CC(=O)C[C@@H](C)[C@]12Oc1c(Cl)c(OC)cc(OC)c1C2=O | 21.5 |

# next compound below
response.value for CCOC(=O)CCC(=O)O[C@H]1[C@H](O[C@@H]2[C@@H](C)[C@H](O[C@H]3C[C@@](C)(OC)[C@@H](O)[C@H](C)O3)[C@@H](C)C(=O)O[C@H](CC)[C@@](C)(O)[C@H](O)[C@@H](C)C(=O)[C@H](C)C[C@@]2(C)O)O[C@H](C)C[C@@H]1N(C)C [ERYTHROMYCIN ETHYLSUCCINATE] (field: MCH) = 21.2

---

The entries below are paired with their reported Fbg.
Organism: Rattus norvegicus
procedure-details: Open TG-GATES - Regimen: Daily Repeat
Assay type: toxicity, organism-based, Sprague-Dawley
Design: regimen Daily Repeat, gender Male, age 6 weeks
protocol-conditions: in vivo, po, 10 mg/kg, […], tissue Blood, route gavage, dose level Low, time 7 day
Return type: number; implicit unit mg/dL.

Here's what some known entries look like.
| compound | unit-name | Fbg |
| --- | --- | --- |
| CC1=C(/C=C/C(C)=C/C=C/C(C)=C/CO)C(C)(C)CCC1 [RETINOL] | mg/dL | 298.4 |
| CN(C)CCN(Cc1cccs1)c1ccccn1 | mg/dL | 323.4 |
| CN(C)CCCN1c2ccccc2CCc2ccccc21 [IMIPRAMINE] | mg/dL | 291.6 |

Next up:
Lab note: measured Fbg of CC(C)OC(=O)C(C)(C)Oc1ccc(C(=O)c2ccc(Cl)cc2)cc1 [FENOFIBRATE] was 280.8

---

Readings of RALB for the listed compounds
Species: Rattus norvegicus
procedure-details: Open TG-GATES - Regimen: Daily Repeat
Format: toxicity, organism-based, Sprague-Dawley
Parameters: regimen Daily Repeat, gender Male, age 6 weeks
protocol-conditions: in vivo, po, 1000 mg/kg, 72 h, tissue Plasma, route gavage, dose level High, time 3 day
Reply with a number, then the unit it belongs to.

| compound | RALB |
| --- | --- |
| NC(N)=Nc1nc(CSCCC(N)=NS(N)(=O)=O)cs1 | 3.3 g/dL |
| CCOc1ccc(NC(=O)CC(C)O)cc1 (stereo unspecified) | 2.6 g/dL |
| COC1=CC(=O)C[C@@H](C)[C@]12Oc1c(Cl)c(OC)cc(OC)c1C2=O | 3.4 g/dL |

Given item CC(C)OC(=O)C(C)(C)Oc1ccc(C(=O)c2ccc(Cl)cc2)cc1 [FENOFIBRATE] , the value recorded as its RALB is 2.6 g/dL

Looking up COc1ccc2[nH]c([S+]([O-])Cc3ncc(C)c(OC)c3C)nc2c1 (stereo unspecified) , I found its RALB recorded as 3.3 g/dL

Reported RALB for CCOC(=O)CCC(=O)O[C@H]1[C@H](O[C@@H]2[C@@H](C)[C@H](O[C@H]3C[C@@](C)(OC)[C@@H](O)[C@H](C)O3)[C@@H](C)C(=O)O[C@H](CC)[C@@](C)(O)[C@H](O)[C@@H](C)C(=O)[C@H](C)C[C@@]2(C)O)O[C@H](C)C[C@@H]1N(C)C [ERYTHROMYCIN ETHYLSUCCINATE] was 3.1 g/dL

---

Reported TERMINAL_BW values for a set of molecules
Species on record: Rattus norvegicus
procedure-details: Open TG-GATES - Regimen: Daily Repeat
Assay type: toxicity, organism-based, Sprague-Dawley
Parameters: regimen Daily Repeat, gender Male, age 6 weeks
protocol-conditions: in vivo, po, 1000 mg/kg, […], route gavage, dose level High, time 14 day
Please respond with the number in g and leave the unit unwritten.

Known TERMINAL_BW results, listed for orientation:
| molecule | TERMINAL_BW [g] |
| --- | --- |
| CCOc1ccc(NC(=O)CC(C)O)cc1 (stereo unspecified) | 329.1 |
| COC1=CC(=O)C[C@@H](C)[C@]12Oc1c(Cl)c(OC)cc(OC)c1C2=O | 318.3 |
| COc1ccc2[nH]c([S+]([O-])Cc3ncc(C)c(OC)c3C)nc2c1 (stereo unspecified) | 300.1 |
| NC(N)=Nc1nc(CSCCC(N)=NS(N)(=O)=O)cs1 | 322.6 |
| CC(C)OC(=O)C(C)(C)Oc1ccc(C(=O)c2ccc(Cl)cc2)cc1 [FENOFIBRATE] | 269.5 |

Shifting focus to the molecule that follows.
Sure, the documented TERMINAL_BW for CCOC(=O)CCC(=O)O[C@H]1[C@H](O[C@@H]2[C@@H](C)[C@H](O[C@H]3C[C@@](C)(OC)[C@@H](O)[C@H](C)O3)[C@@H](C)C(=O)O[C@H](CC)[C@@](C)(O)[C@H](O)[C@@H](C)C(=O)[C@H](C)C[C@@]2(C)O)O[C@H](C)C[C@@H]1N(C)C [ERYTHROMYCIN ETHYLSUCCINATE] is 298.7

---

TBIL values by entry
Species: Rattus norvegicus
procedure-details: Open TG-GATES - Regimen: Single
Format: toxicity, organism-based, Sprague-Dawley
Design: regimen Single, gender Male, age 6 weeks
protocol-conditions: in vivo, po, 100 mg/kg, 24 h, tissue Plasma, route gavage, dose level Low
Answer as a quantity: numeral, then unit.

Some entries whose results are on file:
| compound | outcome-measure | result |
| --- | --- | --- |
| NC(N)=Nc1nc(CSCCC(N)=NS(N)(=O)=O)cs1 | TBIL | 0.1 mg/dL |
| COC1=CC(=O)C[C@@H](C)[C@]12Oc1c(Cl)c(OC)cc(OC)c1C2=O | TBIL | 0.2 mg/dL |
| COc1ccc2[nH]c([S+]([O-])Cc3ncc(C)c(OC)c3C)nc2c1 (centres undefined) | TBIL | 0.1 mg/dL |

Let us examine a further case.
Just so you know, measured TBIL for CCOC(=O)CCC(=O)O[C@H]1[C@H](O[C@@H]2[C@@H](C)[C@H](O[C@H]3C[C@@](C)(OC)[C@@H](O)[C@H](C)O3)[C@@H](C)C(=O)O[C@H](CC)[C@@](C)(O)[C@H](O)[C@@H](C)C(=O)[C@H](C)C[C@@]2(C)O)O[C@H](C)C[C@@H]1N(C)C [ERYTHROMYCIN ETHYLSUCCINATE] came out at 0.03 mg/dL

---

Species: Rattus norvegicus
procedure-details: Open TG-GATES - Regimen: Single
Assay type: toxicity, organism-based, Sprague-Dawley
Parameters: regimen Single, gender Male, age 6 weeks
protocol-conditions: in vivo, po, 0 mg/kg, 6 h, tissue Blood, route gavage, dose level Control
Lab note: cut-off is 20%. Strictly less in Neu is true (1). Exactly 20% or more is false (0).

Worked cases, answers included:
| compound | class-label |
| --- | --- |
| CCOc1ccc(NC(=O)CC(C)O)cc1 (configuration not stated) | true (1) |
| CC/C(=C(\c1ccccc1)c1ccc(OCCN(C)C)cc1)c1ccccc1 | false (0) |
| CCCNC(=O)NS(=O)(=O)c1ccc(Cl)cc1 [CHLORPROPAMIDE] | false (0) |
| COc1cc2c(c(OC)c1OC)-c1ccc(OC)c(=O)cc1[C@@H](NC(C)=O)CC2 | true (1) |
| COc1ccc2[nH]c([S+]([O-])Cc3ncc(C)c(OC)c3C)nc2c1 (configuration not stated) | false (0) |

Data request: Is 20% strictly greater than the compound's reported Neu? compound: O=C(CCCN1CCC(O)(c2ccc(Cl)cc2)CC1)c1ccc(F)cc1
Data returned: false (0)

Data request: Problem: For the compound CC1=C(/C=C/C(C)=C/C=C/C(C)=C/CO)C(C)(C)CCC1 , is Neu under 20%?
Data returned: true (1)

Reference source: ChEMBL document CHEMBL3885861
